# tgt: MAGL (Mus musculus (Mouse), UniProt O35678)
# Sequence (O35678 whole entry): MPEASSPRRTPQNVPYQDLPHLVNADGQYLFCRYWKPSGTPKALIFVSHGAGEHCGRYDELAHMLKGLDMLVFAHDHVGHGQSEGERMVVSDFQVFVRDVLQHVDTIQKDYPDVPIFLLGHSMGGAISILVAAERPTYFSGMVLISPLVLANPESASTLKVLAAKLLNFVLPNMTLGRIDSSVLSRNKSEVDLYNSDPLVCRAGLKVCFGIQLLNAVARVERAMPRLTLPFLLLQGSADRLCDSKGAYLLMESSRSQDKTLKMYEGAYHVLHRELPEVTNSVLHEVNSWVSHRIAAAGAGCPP
# measurement description: Competitive ABPP, % inhibition at 1 uM, MAGL
# Format: biochemical
endpoint label: inhibition at 1 µM

Answered examples (2):
| compound | tgt | result |
| --- | --- | --- |
| C[C@@H]1CN(Cc2ccc(N3CCOCC3)cc2Cl)CCN1C(=O)OC(C(F)(F)F)C(F)(F)F | MAGL (Mus musculus (Mouse), UniProt O35678) | < 25% |
| Cc1cccc(-c2ccc(CN3CCN(C(=O)OC(C(F)(F)F)C(F)(F)F)CC3)c(C)c2)n1 [Example 11z] | MAGL (Mus musculus (Mouse), UniProt O35678) | 25 to 75% |

Report inhibition at 1 µM for `C[C@H]1CN(Cc2ccc(N3CCOCC3)cc2Cl)CCN1C(=O)OC(C(F)(F)F)C(F)(F)F` please.
25 to 75%

Report inhibition at 1 µM for Cc1cc(-c2ccncc2C)ccc1CN1CCN(C(=O)OC(C(F)(F)F)C(F)(F)F)CC1 [Example 11n] please.
> 75%

Report inhibition at 1 µM for `O=C(OC(C(F)(F)F)C(F)(F)F)N1CCN(Cc2cc(Cl)ccc2N2CCCC2)CC1` please.
25 to 75%

Report inhibition at 1 µM for Cc1cccc(-c2ccc(CN3CCN(C(=O)OC(C(F)(F)F)C(F)(F)F)CC3)c(Oc3ccccc3)c2)c1 [Example 11r] please.
25 to 75%

Report inhibition at 1 µM for O=C(OC(C(F)(F)F)C(F)(F)F)N1CCN(Cc2ccc(-c3cccc(F)c3)cn2)CC1 [Example 11k] please.
> 75%

Report inhibition at 1 µM for `O=C(OC(C(F)(F)F)C(F)(F)F)N1CCN(Cc2ccc(N3CCOCC3)cc2C(F)(F)F)CC1` please.
25 to 75%

---

Reported inhibition at 1 µM values for a set of molecules
# tgt: MAGL (Mus musculus (Mouse), UniProt O35678)
# measurement description: Competitive ABPP, % inhibition at 1 uM, MAGL
# Format: biochemical

Answered examples (6):
| molecule | inhibition at 1 µM |
| --- | --- |
| Cc1nc(CN2CCN(C(=O)OC(C(F)(F)F)C(F)(F)F)CC2)ccc1-c1ccccc1F [Example 11v] | > 75% |
| CC(C)c1cc(N2CCOCC2)ccc1CN1CCN(C(=O)OC(C(F)(F)F)C(F)(F)F)CC1 | 25 to 75% |
| Cc1cc(-c2ccc(CN3CCN(C(=O)OC(C(F)(F)F)C(F)(F)F)CC3)c(F)c2)ccn1 [Example 11g] | > 75% |
| O=C(OC(C(F)(F)F)C(F)(F)F)N1CCN(Cc2cccc(Cl)c2C(=O)N2CCOCC2)CC1 | 25 to 75% |
| Cc1cccc(-c2ccc(CN3CCN(C(=O)OC(C(F)(F)F)C(F)(F)F)CC3)nc2C)c1 [Example 11ad] | > 75% |
| CC1CN(C(=O)OC(C(F)(F)F)C(F)(F)F)CCN1Cc1ccc(-c2ccccc2)cc1 (stereo not shown) [Example 11a] | 25 to 75% |

Let us examine a further case.
Report inhibition at 1 µM for COc1ccc(-c2cc(CN3CCN(C(=O)OC(C(F)(F)F)C(F)(F)F)CC3)no2)cc1 [Example 10a] please.
> 75%

---

Reported IC50 values for a set of molecules
# tgt: ABHD6 (Mus musculus (Mouse))
# Sequence (Q8R2Y0 whole entry): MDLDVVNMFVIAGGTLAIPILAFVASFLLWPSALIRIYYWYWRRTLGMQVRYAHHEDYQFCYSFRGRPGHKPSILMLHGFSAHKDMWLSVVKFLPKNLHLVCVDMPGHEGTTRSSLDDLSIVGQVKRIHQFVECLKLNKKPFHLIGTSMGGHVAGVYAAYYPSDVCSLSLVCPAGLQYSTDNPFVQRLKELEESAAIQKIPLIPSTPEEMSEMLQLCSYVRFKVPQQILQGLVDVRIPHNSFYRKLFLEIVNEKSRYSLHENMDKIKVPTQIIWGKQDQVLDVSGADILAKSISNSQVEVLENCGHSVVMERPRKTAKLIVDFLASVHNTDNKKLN
# measurement description: In vitro competitive activity-based protein profiling (FP-Rh), mouse ABHD6
# Type: biochemical
# test settings: mouse brain membrane proteome, competitive ABPP (Table 7)

Answered examples (10):
| molecule | IC50 |
| --- | --- |
| O=C(OC(C(F)(F)F)C(F)(F)F)N1CCN(Cc2cccc(F)c2N2CCCC2)CC1 [Example 9as] | > 1000 nM |
| O=C(OC(C(F)(F)F)C(F)(F)F)N1CCN(Cc2ccc(Cl)cc2N2CCC2)CC1 [Example 9ay] | > 1000 nM |
| CC(C)n1cc(CN2CCN(C(=O)OC(C(F)(F)F)C(F)(F)F)CC2)c(-c2ccccc2Cl)n1 [Example 10i] | 100 to 1000 nM |
| O=C(OC(C(F)(F)F)C(F)(F)F)N1CCN(Cc2cc(Cl)ccc2N2CCCC2)CC1 [Example 9n] | > 1000 nM |
| O=C(OC(C(F)(F)F)C(F)(F)F)N1CCN(Cc2ccc(C(=O)N3CCC3)cc2Cl)CC1 [Example 9be] | 100 to 1000 nM |
| COc1cc(N2CCOCC2)ccc1CN1CCN(C(=O)OC(C(F)(F)F)C(F)(F)F)CC1 [Example 9s] | 100 to 1000 nM |
| O=C(OC(C(F)(F)F)C(F)(F)F)N1CCN(Cc2ccc(-c3ccccc3)cc2C(=O)N2CCCC2)CC1 [Example 11y] | > 1000 nM |
| Cc1cc(-c2ccccc2)ccc1CN1CCN(C(=O)OC(C(F)(F)F)C(F)(F)F)CC1 [Example 11q] | > 1000 nM |
| O=C(OC(C(F)(F)F)C(F)(F)F)N1CCN(Cc2cc(Cl)ccc2N2CCOCC2)CC1 [Example 9ag] | > 1000 nM |
| O=C(OC(C(F)(F)F)C(F)(F)F)N1CCN(Cc2ccc(N3CCOCC3)c(Cl)c2)CC1 [Example 9h] | 100 to 1000 nM |

Report IC50 for O=C(OC(C(F)(F)F)C(F)(F)F)N1CCN(Cc2cccc(F)c2N2CCOCC2)CC1 [Example 9d] please.
> 1000 nM

Report IC50 for O=C(OC(C(F)(F)F)C(F)(F)F)N1CCN(Cc2ccc(Cl)cc2N2CCN3CCC[C@@H]3C2)CC1 [Example 9bi] please.
> 1000 nM

Report IC50 for O=C(OC(C(F)(F)F)C(F)(F)F)N1CCN(Cc2ccc(Cl)cc2N2Cc3cccnc3C2)CC1 [Example 9bh] please.
100 to 1000 nM

Report IC50 for O=C(OC(C(F)(F)F)C(F)(F)F)N1CCN(Cc2ccc(N3CCOCC3)cc2F)CC1 [Example 9a] please.
100 to 1000 nM

Report IC50 for COc1cc(-c2ccccc2)ccc1CN1CCN(C(=O)OC(C(F)(F)F)C(F)(F)F)CC1 [Example 11j] please.
> 1000 nM

Report IC50 for CC(C)n1cc(CN2CCN(C(=O)OC(C(F)(F)F)C(F)(F)F)CC2)c(-c2ccccc2)n1 [Example 10h] please.
100 to 1000 nM
